Molecular target: human GLUT1 (Homo sapiens)
Construct: expressed in transfected cells
Sequence (P11166 1-492): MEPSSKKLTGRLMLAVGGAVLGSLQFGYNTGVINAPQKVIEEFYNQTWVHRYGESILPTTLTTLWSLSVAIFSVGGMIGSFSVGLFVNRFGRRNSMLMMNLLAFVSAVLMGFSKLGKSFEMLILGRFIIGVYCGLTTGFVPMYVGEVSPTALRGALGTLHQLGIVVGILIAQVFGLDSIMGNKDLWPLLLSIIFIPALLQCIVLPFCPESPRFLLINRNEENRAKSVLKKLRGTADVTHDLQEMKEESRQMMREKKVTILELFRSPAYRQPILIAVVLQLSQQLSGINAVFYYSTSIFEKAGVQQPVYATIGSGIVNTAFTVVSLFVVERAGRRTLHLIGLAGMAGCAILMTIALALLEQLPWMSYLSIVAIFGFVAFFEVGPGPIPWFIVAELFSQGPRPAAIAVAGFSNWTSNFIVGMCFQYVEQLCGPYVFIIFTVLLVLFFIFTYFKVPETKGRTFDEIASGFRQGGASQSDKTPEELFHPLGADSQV
Experiment: [3H]-deoxy-D-glucose uptake assay, GLUT1
Assay type: cell-based
Details: [3H]-deoxy-D-glucose uptake in HEK293 cells stably expressing human GLUT1
READOUT_LABEL: GLUT1 pIC50

Worked examples, 5 molecules total:
# ITEM_SMILES, GLUT1 pIC50
rows = [
    ("Fc1ccc(-c2nc3ccc(-c4ccccc4)cn3c2CN2CCOCC2)cc1", "+ (pIC50 4.00-4.99)"),
    ("CC(C)CC(=O)N1CCN(Cc2c(-c3cccc([N+](=O)[O-])c3)nc3ccc(-c4ccccc4)cn23)CC1", "+ (pIC50 4.00-4.99)"),
    ("Cc1ccc(-c2nc3ccc(-c4ccccc4)cn3c2CN2CCN(C(=O)c3cccs3)CC2)cc1", "+++ (pIC50 ≧ 6.00)"),
    ("CC(C)c1cn2c(CN3CCOCC3)c(-c3ccc(Cl)cc3Cl)nc2cn1", "+++ (pIC50 ≧ 6.00)"),
    ("CC(=O)N1CCN(Cc2c(-c3ccc(Cl)cc3Cl)nc3ccc(N(C(F)F)S(C)(=O)=O)cn23)CC1", "+++ (pIC50 ≧ 6.00)"),
]

Attention now shifts to the item below.
Form field, GLUT1 pIC50 with human GLUT1 (Homo sapiens), item COCC(=O)N1CCN(Cc2c(-c3ccc(Cl)cc3)nc3ccc(-c4c(F)cccc4F)cn23)CC1 : +++ (pIC50 ≧ 6.00)
